# test.summary: NCI Yeast Anticancer Drug Screen. Data for the mlh1 rad18 strain (AID 175)
# recorded.conditions: S. cerevisiae mlh1 rad18 strain growth inhibition; at 50.0 µM; hits give high values
This is part of a sample that, as a whole, favours compounds with a hit. Of some 79,000 tested, about 15% had one in any assay.
reported.metric: growth inhibition (%)
Give bare numbers, in %.

Example results:
molecule=Cc1cc(C)c(C(=O)CC(C)C)c(C)c1 reported_metric="growth inhibition" unit_string=% quantitative_readout=-4.2
molecule="CC(C)C(NC(=O)C1CCCN1)P(=O)(O)O (stereo not given)" reported_metric="growth inhibition" unit_string=% quantitative_readout=5.9
molecule="CCCCCCCC(=O)N1C2CN3C4=C(C(=O)C(N)=C(C)C4=O)C(COC(N)=O)C3(OC)C21 (stereo not given)" reported_metric="growth inhibition" unit_string=% quantitative_readout=47.1
molecule="C[Si](C)(/C(=C/COCc1ccccc1)CCOC1CCCCO1)c1ccccc1 (stereo not given)" reported_metric="growth inhibition" unit_string=% quantitative_readout=-27.4
molecule="CC1CN=C(c2ccccc2)C(c2ccccc2)=N1 (stereo not given)" reported_metric="growth inhibition" unit_string=% quantitative_readout=-22.3
molecule=Nc1ccc(-c2cc[cH-]c2)cc1.[Fe+2].c1cc[cH-]c1 reported_metric="growth inhibition" unit_string=% quantitative_readout=22.6
molecule=CCCC(=O)N[C@H]1C[C@H]2CC[C@@]1(C)C2(C)C reported_metric="growth inhibition" unit_string=% quantitative_readout=-1.75
molecule=O=C(O)/C=C\c1cccc([N+](=O)[O-])c1 reported_metric="growth inhibition" unit_string=% quantitative_readout=-14.8
molecule=CCc1cc(C)cc(C(C)(C)C)c1 reported_metric="growth inhibition" unit_string=% quantitative_readout=22
molecule=C#CCN(CC#C)C(=O)CCCCCCCCC=C reported_metric="growth inhibition" unit_string=% quantitative_readout=97.2

Would you mind giving growth inhibition for every molecule in the list below?
1. CC(=O)N1Cc2c(cc(C)[nH]c2=O)C1=O
2. CCCC(=O)OCc1ccc(Cl)cc1
3. Cc1cc(S(=O)(=O)O)cc(Cl)c1N

1: 7.65; 2: 3.35; 3: -9.4

====

# test.summary: NCI Yeast Anticancer Drug Screen. Data for the bub3 strain (AID 167)
# recorded.conditions: S. cerevisiae bub3 mutant strain, at 50.0 µM, hits give high values
This is part of a sample that, as a whole, favours compounds with a hit. Of some 79,000 tested, about 15% had one in any assay.
reported.metric: growth inhibition (%)
Give bare numbers, in %.

Example results:
compound="COC(C)C(NC(=O)C1CCCN1C)C1OC(SCCOC(=O)c2ccccc2O)C(O)C(O)C1O (configuration not stated)" reported_metric="growth inhibition" quantitative_readout=3.45
compound=CN(C)CCCNC(=O)N/N=C/c1ccc(O)cc1 reported_metric="growth inhibition" quantitative_readout=1.65
compound="COC(=O)C(CC(=O)Nc1ccc(Cl)c(Cl)c1)C(=O)C(=O)NC1C2CC3CC(C2)CC1C3 (configuration not stated)" reported_metric="growth inhibition" quantitative_readout=-8.65
compound=CCc1ccccc1O reported_metric="growth inhibition" quantitative_readout=-11.7

Would you mind giving growth inhibition for every compound in the list below?
1. O=C(NCCc1c(-c2ccccc2)[nH]c2ccccc12)C1CCCCC1
2. CC[O-].CC[O-].O=C([CH-]C(=O)c1ccccc1)CCCCCCC(=O)[CH-]C(=O)c1ccccc1.[Ti+4]

1. 30.9
2. 4.95

Would you mind giving growth inhibition for every compound in the list below?
1. N#CCc1ccccc1C(C#N)C(=O)CCC(=O)C(C#N)c1ccccc1CC#N (configuration not stated)
2. COc1ccc(OC)c(-c2cc(C(=O)O)c3cc4ccccc4cc3n2)c1
3. COc1ccc(NC(=S)NNC(=O)c2nsc3ccccc23)cc1
4. COc1c(C)c(C)c(OC)c(CC(=O)O)c1C
5. C=CCOc1ccc(Cl)cc1Br

1. 6.75
2. -52.8
3. -0.8
4. -17.7
5. -3.35

Would you mind giving growth inhibition for every compound in the list below?
1. Cc1ccc(S(=O)(=O)N=Nc2c(O)[nH]c3c(Cl)cc(Cl)cc23)cc1
2. Cn1cc(Cc2ccc(-c3ccccc3)cc2)c(=O)c(Cc2ccc(-c3ccccc3)cc2)c1

[-22.4, 3.9]
